CC50 at 3 days values for the molecules below.
Assay: Cytotoxicity in HCV replicon cells (Cell Titer-fluor)
Assay type: cell-based
measuredAttribute: CC50 at 3 days

1) O=C(c1oc2c(C(F)(F)F)cc(C3CC3)cc2c1Cl)N1CCC(=O)N(C2CCCC2)CC1 [YD_0330]    > 3 µM
2) O=C(c1oc2c(C(F)(F)F)cc(C3CC3)cc2c1Cl)N1CCN([C@H]2CC[C@H](O)CC2)C(=O)N1 [YD_0365]    > 3 µM
3) CC1(O)CN(C(=O)C2CCN(C(=O)c3oc4c(C(F)(F)F)cc(C5CC5)cc4c3Cl)CC2)C1 [YD_0345]    > 3 µM
4) O=C(Nc1ccc(Cl)cn1)C1CCN(C(=O)c2oc3c(C(F)(F)F)cc(C4CC4)cc3c2Cl)CC1 [YD_0327]    > 3 µM
5) O=C(NC12CCC(c3nnco3)(CC1)CC2)c1oc2c(C(F)(F)F)cc(C3CC3)cc2c1Cl [YD_0122]    > 3 µM
6) CC(C)N1CCN(C(=O)c2oc3c(C(F)(F)F)cc(C4CC4)cc3c2Cl)NC1=O [YD_0374]    > 3 µM
7) Cc1nnc(C23CCC(NC(=O)c4oc5c(C(F)(F)F)cc(C6CC6)cc5c4C)(CC2)CC3)o1 [YD_0058]    > 3 µM
8) O=C(c1oc2c(C(F)(F)F)cc(C3CC3)cc2c1Cl)N1CCN(C23CC(C2)C3)C(=O)C1 [YD_0253]    > 3 µM
9) CN(C(=O)C1CCN(C(=O)c2oc3c(C(F)(F)F)cc(C4CC4)cc3c2Cl)CC1)c1ccc(F)cn1 [YD_0329]    > 3 µM
10) Cc1nnc(C23CCC(NC(=O)c4oc5c(C(F)(F)F)cc(C6CC6)cc5c4Br)(CC2)CC3)o1 [YD_0057]    > 3 µM
11) Cc1cc(C(F)(F)F)c2nc(C(=O)N3CCN(C(C)(C)C)C(=O)N3)c(Cl)n2c1 [YA_0368]    > 3 µM
12) CN(C)C1CN(C(=O)C2CCN(C(=O)c3oc4c(C(F)(F)F)cc(C5CC5)cc4c3Cl)CC2)C1 [YD_0343]    > 3 µM
13) CN1CCN(C(=O)C2CCN(C(=O)c3oc4c(C(F)(F)F)cc(C5CC5)cc4c3Cl)CC2)CC1 [YD_0305]    > 3 µM
14) O=C(c1oc2c(C(F)F)cc(C3CC3)cc2c1Cl)N1CCN(N2CCOC2=O)CC1 [YD_0278]    > 3 µM
15) CC(C)N(C)C(=O)C1CCN(C(=O)c2oc3c(C(F)(F)F)cc(C4CC4)cc3c2Cl)CC1 [YD_0302]    > 3 µM
16) CC1CN(C(=O)C2CCN(C(=O)c3oc4c(C(F)(F)F)cc(C5CC5)cc4c3Cl)CC2)CCN1C (centres unmarked) [YD_0325]    > 3 µM
17) O=C1CN(N2CCN(C(=O)c3oc4c(C(F)(F)F)cc(C5CC5)cc4c3Cl)CC2=O)C(=O)N1 [YD_0272]    > 3 µM
18) O=C(c1oc2c(F)cc(C3CC3)cc2c1Cl)N1CCN(N2CCOC2=O)CC1 [YD_0245]    > 3 µM
19) CC1CN(C(=O)C2CCN(C(=O)c3oc4c(C(F)(F)F)cc(C5CC5)cc4c3Cl)CC2)CCN1 (centres unmarked) [YD_0326]    > 3 µM
20) CC1CN(C)CCN1C(=O)C1CCN(C(=O)c2oc3c(C(F)(F)F)cc(C4CC4)cc3c2Cl)CC1 (centres unmarked) [YD_0321]    > 3 µM
21) CC(C)N1CCN(C(=O)c2nc3c(C(F)(F)F)cc(C4CC4)cn3c2Cl)NC1=O [YA_0360]    > 3 µM
22) O=C(c1nc2c(C(F)(F)F)cc(C3CC3)cn2c1Cl)N1CCN(C2CCC(F)(F)CC2)C(=O)N1 [YA_0366]    > 3 µM
23) CC1CN(C(=O)C2CCN(C(=O)c3oc4c(C(F)(F)F)cc(C5CC5)cc4c3Cl)CC2)CCO1 (centres unmarked) [YD_0323]    > 3 µM
24) O=C1CN(N2CCN(C(=O)c3oc4c(C(F)(F)F)cc(C5CC5)cc4c3Cl)CC2)C(=O)N1 [YD_0331]    > 3 µM
25) O=C(c1nc2c(C(F)(F)F)cc(C3CC3)cn2c1Cl)N1CCN(C2CC(F)(F)C2)C(=O)N1 [YA_0367]    > 3 µM
26) CC1(C(N)=O)CN(C(=O)C2CCN(C(=O)c3oc4c(C(F)(F)F)cc(C5CC5)cc4c3Cl)CC2)C1 [YD_0348]    > 3 µM
27) O=C(c1oc2c(C(F)(F)F)cc(C3CC3)cc2c1Cl)N1CCN(N2CCOC2=O)CC1 [YD_0214]    > 3 µM
28) O=C(c1oc2c(C(F)(F)F)cc(C3CC3)cc2c1Cl)N1CCC(C(=O)N2CC(F)C2)CC1 [YD_0342]    > 3 µM
29) O=C1NN(C(=O)c2nc3c(C(F)(F)F)cc(C4CC4)cn3c2Cl)CCN1CC(F)(F)F [YA_0361]    > 3 µM
30) O=C(c1oc2c(C(F)(F)F)cc(C3CC3)cc2c1Cl)N1CCN(N2CCOC2=O)C(=O)C1 [YD_0219]    > 3 µM
31) O=C(c1nc2c(C(F)(F)F)cc(C3CC3)cn2c1Cl)N1CCN(C2CCCC2)C(=O)N1 [YA_0338]    > 3 µM
32) O=C(c1oc2c(C(F)(F)F)cc(C3CC3)cc2c1Cl)N1CCC(C(=O)N2CC(CO)C2)CC1 [YD_0355]    > 3 µM
